These data points were gathered from patent US20250197374A1.

Give 293T-LentiX WEE1-ePL Degradation 4 hr YMin (%) for every item shown.
Target: WEE1 (Homo sapiens, UniProt P30291+Q96SW2)
Construct: C-terminal ePL-tagged (DiscoverX, Fremont, CA) full-length WEE1 expression construct; expressed in transfected cells; host or cells: LentiX-HEK293T (Invitrogen), lentivirally transduced; the cells also over-express GSPT1-GN
Sequence (P30291 whole entry): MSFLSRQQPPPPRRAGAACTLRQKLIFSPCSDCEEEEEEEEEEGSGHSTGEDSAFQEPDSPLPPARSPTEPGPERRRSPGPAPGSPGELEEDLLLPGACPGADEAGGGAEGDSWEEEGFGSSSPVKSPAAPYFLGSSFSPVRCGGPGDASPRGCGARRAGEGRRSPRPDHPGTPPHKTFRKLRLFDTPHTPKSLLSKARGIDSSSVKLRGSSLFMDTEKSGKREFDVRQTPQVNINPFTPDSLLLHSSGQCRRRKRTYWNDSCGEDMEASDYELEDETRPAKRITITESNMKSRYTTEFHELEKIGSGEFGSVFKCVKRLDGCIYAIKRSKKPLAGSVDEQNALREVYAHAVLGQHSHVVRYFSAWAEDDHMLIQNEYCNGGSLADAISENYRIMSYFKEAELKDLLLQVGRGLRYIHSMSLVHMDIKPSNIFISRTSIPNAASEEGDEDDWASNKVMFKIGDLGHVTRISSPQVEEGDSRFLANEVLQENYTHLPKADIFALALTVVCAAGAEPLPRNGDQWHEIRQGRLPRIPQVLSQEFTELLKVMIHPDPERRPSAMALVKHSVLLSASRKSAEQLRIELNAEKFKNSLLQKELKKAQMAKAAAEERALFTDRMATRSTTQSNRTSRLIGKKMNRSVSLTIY
Sequence (Q96SW2 whole entry): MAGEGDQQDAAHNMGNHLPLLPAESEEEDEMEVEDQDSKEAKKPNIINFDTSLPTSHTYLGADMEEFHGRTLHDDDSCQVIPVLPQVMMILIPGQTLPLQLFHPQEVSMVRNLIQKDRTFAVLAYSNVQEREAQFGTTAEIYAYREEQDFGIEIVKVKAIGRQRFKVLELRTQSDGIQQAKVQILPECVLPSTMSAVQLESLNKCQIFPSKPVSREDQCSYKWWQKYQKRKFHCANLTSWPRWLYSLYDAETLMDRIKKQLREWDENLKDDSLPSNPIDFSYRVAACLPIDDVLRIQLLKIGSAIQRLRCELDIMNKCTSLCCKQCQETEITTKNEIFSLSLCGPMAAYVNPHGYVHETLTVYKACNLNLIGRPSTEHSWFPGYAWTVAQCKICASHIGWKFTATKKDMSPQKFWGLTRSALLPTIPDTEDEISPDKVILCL
Sequence (Q16531 whole entry partner): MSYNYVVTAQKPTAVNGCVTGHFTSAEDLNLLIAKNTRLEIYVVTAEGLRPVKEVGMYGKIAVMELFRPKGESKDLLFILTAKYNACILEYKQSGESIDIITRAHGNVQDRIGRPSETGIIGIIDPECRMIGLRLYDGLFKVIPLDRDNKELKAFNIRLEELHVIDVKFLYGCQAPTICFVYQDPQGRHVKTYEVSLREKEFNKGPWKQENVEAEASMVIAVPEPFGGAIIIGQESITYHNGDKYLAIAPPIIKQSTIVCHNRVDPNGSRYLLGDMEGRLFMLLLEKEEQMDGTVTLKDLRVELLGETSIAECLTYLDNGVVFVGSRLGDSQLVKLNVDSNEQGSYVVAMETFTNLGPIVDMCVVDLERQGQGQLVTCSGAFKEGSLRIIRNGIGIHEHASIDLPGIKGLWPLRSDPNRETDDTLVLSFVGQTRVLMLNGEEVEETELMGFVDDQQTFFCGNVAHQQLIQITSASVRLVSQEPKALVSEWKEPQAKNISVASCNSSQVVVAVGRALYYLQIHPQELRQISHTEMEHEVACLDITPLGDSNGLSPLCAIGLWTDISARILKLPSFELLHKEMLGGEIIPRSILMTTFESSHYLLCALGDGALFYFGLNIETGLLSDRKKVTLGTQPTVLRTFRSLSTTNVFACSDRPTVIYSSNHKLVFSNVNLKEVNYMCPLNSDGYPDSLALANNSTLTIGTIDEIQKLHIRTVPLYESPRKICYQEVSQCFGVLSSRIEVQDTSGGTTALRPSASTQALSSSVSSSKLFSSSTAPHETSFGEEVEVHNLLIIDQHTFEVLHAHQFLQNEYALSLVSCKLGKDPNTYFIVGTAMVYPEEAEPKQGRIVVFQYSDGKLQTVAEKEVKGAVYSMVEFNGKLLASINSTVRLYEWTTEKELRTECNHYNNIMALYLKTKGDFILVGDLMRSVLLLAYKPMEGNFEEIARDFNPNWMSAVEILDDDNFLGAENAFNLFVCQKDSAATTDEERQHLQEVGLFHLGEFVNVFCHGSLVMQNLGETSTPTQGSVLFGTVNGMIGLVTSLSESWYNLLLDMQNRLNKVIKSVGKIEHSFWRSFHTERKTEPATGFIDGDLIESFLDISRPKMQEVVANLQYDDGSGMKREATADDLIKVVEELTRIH
Experiment: WEE1-ePL degradation assay (293T-LentiX, InCELL Hunter luminescence, 4 hr)
Format: cell-based
Settings: lower limit of fit, % of DMSO control signal remaining; 4 hr
Give the number; % is assumed, so skip it.

293T-LentiX WEE1-ePL Degradation 4 hr YMin (%) for O=C1CC[C@H](N2Cc3cc(O[C@@H]4CN(Cc5cc(F)c6nc(N7C[C@@H]8CCO[C@@H]8C7)ccc6c5)CC4(F)F)ccc3C2=O)C(=O)N1 (single isomer, unassigned) [Example 15] ?
28.4

Further, for COC(C)(C)[C@@H]1CN(Cc2ccc3nc(C4CCOCC4)ccc3c2)C[C@H]1Oc1ccc2c(c1)CN([C@H]1CCC(=O)NC1=O)C2=O (racemic) [Example 138] ?
48.1

Further, for COC[C@@H]1CN(Cc2cc(F)c3nc(N4CCC(O)CC4)ccc3c2)C[C@H]1Oc1ccc2c(c1)CN([C@H]1CCC(=O)NC1=O)C2=O [Example 64] ?
28.5

Further, for COC[C@@H]1CN(Cc2cc(F)c3nc(N4CCOC5(COC5)C4)ncc3c2)C[C@H]1Oc1ccc2c(c1)CN([C@H]1CCC(=O)NC1=O)C2=O [Example 80] ?
29.7

Further, for O=C1CCC(N2C(=O)c3ccc(O[C@H]4CCN(Cc5cc(F)c6nc(C7CCOCC7)ccc6c5)C4)cc3C2=O)C(=O)N1 (single isomer, unassigned) [Example 26] ?
32.8

Further, for O=C1CC[C@H](N2Cc3cc(O[C@H]4CN(Cc5cc(F)c6nc(C7CCOCC7)ccc6c5)C[C@@H]4C4CCCC4)ccc3C2=O)C(=O)N1 (relative stereo) [Example 146] ?
24.2
